test: E. coli DRC41 culture turbidity changes, primary screen, E. coli filamentation inducer project, strain DRC41, OD650, 48 h (AID 1152);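 further: E. coli MC1000 strain DRC41 lacking acrAB efflux pump and sulA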; details: E. coli DRC41 (acrAB sulA), higher = more signal, called active from +8 up or from −8 down
readout.type: z-score
Lab note: jot the number down without any unit.

**Q:** Would you mind telling me what z-score value was observed for CCOC(=O)[C@H](CC(C)C)NC(=O)CCC1CC(OC(=O)NCc2cccc3ccccc23)CC2(CCCC(COC(=O)NCCOc3ccccc3)O2)O1 (stereo not given in full) ?
**A:** 0.288

**Q:** Would you mind telling me what z-score value was observed for CCOC(=O)[C@H](Cc1ccccc1)NC(=O)CCC1CC(OC(=O)NCc2ccc3c(c2)OCO3)CC2(CCCC(COC(=O)NCCc3ccccc3OC)O2)O1 (stereo not given in full) ?
**A:** -0.567

**Q:** Would you mind telling me what z-score value was observed for CC(C)=CCCC(C)=CCON=C1C[C@@H](O)[C@@H](O)[C@@H]2[C@@H]3C(=O)N(c4cccc(Oc5ccccc5)c4)C(=O)[C@@H]3CC[C@@H]12 ?
**A:** -1.15

**Q:** Would you mind telling me what z-score value was observed for C#CCCCON=C1C[C@@H](O)[C@@H](O)[C@@H]2[C@@H]3C(=O)N(CC)C(=O)[C@@H]3CC[C@@H]12 ?
**A:** -0.229

**Q:** Would you mind telling me what z-score value was observed for CO[C@H]1COC(=O)[C@@H](C)COC(=O)[C@H](COCc2ccccc2)NC(=O)CC=C[C@H]1C ?
**A:** -1.17

**Q:** Would you mind telling me what z-score value was observed for COC(=O)CC=C[C@@H](C)[C@@H](C=NO[C@H](C)c1cn([C@@H]2COC[C@H]2O)nn1)NS(=O)(=O)c1ccc(C)cc1 ?
**A:** 0.876

**Q:** Would you mind telling me what z-score value was observed for CO[C@@H]1COC(=O)[C@H](CCSC)NC(=O)CC=C[C@@H](C)COC(=O)[C@H](C)NC(=O)CC=C[C@H]1C ?
**A:** 0.675

**Q:** Would you mind telling me what z-score value was observed for COC(=O)[C@H]1[C@@H](O)[C@@]2(O)c3ccccc3O[C@@]2(c2ccccc2)[C@@H]1c1ccccc1 ?
**A:** -0.262

**Q:** Would you mind telling me what z-score value was observed for CC(CCN1CCCCc2nc(C)c(C)cc21)=NO[C@H](C)c1cn([C@H](CO)Cc2ccccc2)nn1 ?
**A:** 0.285

**Q:** Would you mind telling me what z-score value was observed for CCN1C(=O)[C@@H]2[C@H]3C(=CC[C@@H]2C1=O)C1(OCCCO1)[C@H]1O[C@H]1[C@H]3O ?
**A:** -0.721

**Q:** Would you mind telling me what z-score value was observed for O=C1[C@H]2[C@H]3[C@H](O)[C@H](O)CC(=NO[C@@H]4O[C@H](CO)[C@@H](O)[C@H](O)[C@H]4O)[C@H]3CC[C@H]2C(=O)N1c1cccc(Oc2ccccc2)c1 ?
**A:** -0.024

**Q:** Would you mind telling me what z-score value was observed for O=C1C[C@@H](O)[C@@H](O)[C@@H]2[C@@H]3C(=O)N(C[C@@H]4CCCO4)C(=O)[C@@H]3CC[C@@H]12 ?
**A:** 0.668

**Q:** Would you mind telling me what z-score value was observed for COC(=O)[C@@H]1CC[C@H](C)[C@@H](c2ccc(C)cc2)N1C(=O)c1ccc(C=NOCC[C@@H]2C=C[C@H](OC(C)=O)[C@@H](COC(C)=O)O2)cc1 ?
**A:** 0.118

**Q:** Would you mind telling me what z-score value was observed for CC(CCN1CCCc2nc(C)c(C)cc21)=NOC(C)CN1CCCCc2nc(C)c(C)cc21 (stereo not given) ?
**A:** -0.702

**Q:** Would you mind telling me what z-score value was observed for O=C1[C@H]2[C@H]3[C@H](O)[C@H](O)CC(=NOC[C@@H](O)COCc4ccco4)[C@H]3CC[C@H]2C(=O)N1c1ccc(F)cc1F ?
**A:** -0.575

**Q:** Would you mind telling me what z-score value was observed for COC(=O)[C@H](C)NC(=O)CCC1CC(OC(=O)NCc2ccc3c(c2)OCO3)CC2(CCCC(COC(=O)NCC3CCCCC3)O2)O1 (stereo not given in full) ?
**A:** -0.23

**Q:** Would you mind telling me what z-score value was observed for COC(=O)CC=C[C@@H](C)[C@@H](C=NOCC[C@@H]1C=C[C@H](OC(C)=O)[C@@H](COC(C)=O)O1)OC ?
**A:** -0.35

**Q:** Would you mind telling me what z-score value was observed for CCOC(=O)[C@H](CC(C)C)NC(=O)CCC1CC(OC(=O)NCc2cccc3ccccc23)CC2(CCCC(COC(=O)NCC3CCCCC3)O2)O1 (stereo not given in full) ?
**A:** -0.398

**Q:** Would you mind telling me what z-score value was observed for C=C(C)C(=O)OCC1CN2[C@@H](CC[C@@H](C)[C@@H]2c2ccc(Br)cc2)C(=O)O1 (stereo not given in full) ?
**A:** -0.949

**Q:** Would you mind telling me what z-score value was observed for CC(CCN1CCCCc2nc(C)c(C)cc21)=NO[C@@H](C)c1cn([C@H](CO)Cc2ccccc2)nn1 ?
**A:** 0.72

**Q:** Would you mind telling me what z-score value was observed for CO[C@H]1COC(=O)CC=C[C@@H](C)[C@H](OC)COC(=O)CCC[C@@H]1C ?
**A:** 0.398

**Q:** Would you mind telling me what z-score value was observed for CC(C)CON=C1C[C@@H](O)[C@@H](O)[C@@H]2[C@@H]3C(=O)N(C4CCCCC4)C(=O)[C@@H]3CC[C@@H]12 ?
**A:** -1.24

**Q:** Would you mind telling me what z-score value was observed for CON=CC[C@@H]1C=C[C@H](OC(C)=O)[C@@H](COC(C)=O)O1 ?
**A:** -2.1

**Q:** Would you mind telling me what z-score value was observed for CCCNC(=O)OC[C@H]1O[C@H](CCON=C(C)C)C=C[C@@H]1Oc1ccc(OC)cc1 ?
**A:** -1.21

**Q:** Would you mind telling me what z-score value was observed for CCOC(=O)[C@H](Cc1ccccc1)NC(=O)CCC1CC(OC(=O)NCCc2ccc(F)cc2)CC2(CCCC(COC(=O)NCCOC)O2)O1 (stereo not given in full) ?
**A:** 0.602

**Q:** Would you mind telling me what z-score value was observed for CC(=O)Nc1ccc([C@@H]2N[C@H](C(=O)O)CC[C@H]2C)cc1 ?
**A:** 0.961

**Q:** Would you mind telling me what z-score value was observed for CC(CCN1CCCCc2nc(C)c(C)cc21)=NOC[C@@H](C)[C@H](OCc1ccccc1)C(C)C ?
**A:** -0.605

**Q:** Would you mind telling me what z-score value was observed for O=c1n(-c2ccccc2)c(=O)n2n1CC[C@@H]1C(=NOCc3ccccc3)[C@H]3O[C@H]3[C@@H](O)[C@@H]12 ?
**A:** -0.422

**Q:** Would you mind telling me what z-score value was observed for CC(C)=CCCC(C)=CCON=C1C[C@@H](O)[C@@H](O)[C@@H]2[C@@H]3C(=O)N(c4ccc(F)cc4F)C(=O)[C@@H]3CC[C@H]12 ?
**A:** -0.061

**Q:** Would you mind telling me what z-score value was observed for CC(CCN1CCc2nc(-c3ccccc3)c(-c3ccccc3)cc2C1)=NOC[C@@H](O)[C@H]1O[C@@H]2OC(C)(C)O[C@@H]2[C@H]1O ?
**A:** 0.784
